# test method notes: Proton chemical shift of bound water of Ln(1)^3+ complexes relative to bulk water (1H NMR)
# Type: physicochemical
# conditions: relative to bulk water at 0 ppm
Note to self: values exactly at -30 ppm are label 1. So δ, proton chemical shift of bound water at or above -30 ppm is label 1, below is label 0.

Say whether CCOC(=O)CNC(=O)CN1CCN(CC(=O)NCC(=O)OCC)CCN(CC(=O)NCC(=O)OCC)CCN(CC(=O)NCC(=O)OCC)CC1.[Er+3] shows δ, proton chemical shift of bound water of -30 ppm or more.
label 1

δ, proton chemical shift of bound water >= -30 ppm for CCOC(=O)CNC(=O)CN1CCN(CC(=O)NCC(=O)OCC)CCN(CC(=O)NCC(=O)OCC)CCN(CC(=O)NCC(=O)OCC)CC1.[Tm+3] ?
label 1

Is δ, proton chemical shift of bound water at least -30 ppm? Consider CCOC(=O)CNC(=O)CN1CCN(CC(=O)NCC(=O)OCC)CCN(CC(=O)NCC(=O)OCC)CCN(CC(=O)NCC(=O)OCC)CC1.[Dy+3]
label 0

Given the entry CCOC(=O)CNC(=O)CN1CCN(CC(=O)NCC(=O)OCC)CCN(CC(=O)NCC(=O)OCC)CCN(CC(=O)NCC(=O)OCC)CC1.[Yb+3] , answer whether its δ, proton chemical shift of bound water meets or surpasses -30 ppm.
label 1

// inclusive: δ, proton chemical shift of bound water at least -30 ppm? input: CCOC(=O)CNC(=O)CN1CCN(CC(=O)NCC(=O)OCC)CCN(CC(=O)NCC(=O)OCC)CCN(CC(=O)NCC(=O)OCC)CC1.[Sm+3]
label 1

Does δ, proton chemical shift of bound water meet or surpass -30 ppm for CCOC(=O)CNC(=O)CN1CCN(CC(=O)NCC(=O)OCC)CCN(CC(=O)NCC(=O)OCC)CCN(CC(=O)NCC(=O)OCC)CC1.[Eu+3] ?
label 1

Given CCOC(=O)CNC(=O)CN1CCN(CC(=O)NCC(=O)OCC)CCN(CC(=O)NCC(=O)OCC)CCN(CC(=O)NCC(=O)OCC)CC1.[Nd+3] , state whether its δ, proton chemical shift of bound water is at least -30 ppm.
label 0

Is the recorded value of δ, proton chemical shift of bound water equal to or greater than -30 ppm for this compound? CCOC(=O)CNC(=O)CN1CCN(CC(=O)NCC(=O)OCC)CCN(CC(=O)NCC(=O)OCC)CCN(CC(=O)NCC(=O)OCC)CC1.[Ho+3]
label 0

hey, is δ, proton chemical shift of bound water for this one >= -30 ppm? CCOC(=O)CNC(=O)CN1CCN(CC(=O)NCC(=O)OCC)CCN(CC(=O)NCC(=O)OCC)CCN(CC(=O)NCC(=O)OCC)CC1.[Tb+3]
label 0

Kindly determine if δ, proton chemical shift of bound water recorded for CCOC(=O)CNC(=O)CN1CCN(CC(=O)NCC(=O)OCC)CCN(CC(=O)NCC(=O)OCC)CCN(CC(=O)NCC(=O)OCC)CC1.[Pr+3] is above or exactly -30 ppm.
label 0
